test system: MDA-MB-468 breast; test: NCI-60 one-dose screen, 48 h; conditions: 10 µM unless noted
Compounds without any hit were thinned out: in the full panel of roughly 83,000, 20% have a hit. Active and inactive are the calls of the source. The calls were made as follows: active = growth percent below 10; inactive = the rest.
I would appreciate it if you answered using one of these outcomes: 1 (active), 0 (inactive)

- CC1=C2[C@@H](CC1)[C@]1(C)O[C@@](C3CC3)(C[C@H]1OC(=O)CO)[C@H]2OC(=O)/C=C/c1ccccc1: 0
- O=C(O)c1ccc(=O)[nH]n1: 0
- O=C(O)c1ccccc1C(=O)OC1CCCC2CCCC21 (stereo not given): 0
- C[C@H](CCC[C@H](C)OS(=O)(=O)c1ccccc1)OS(=O)(=O)c1ccccc1: 0
- Cc1nn(-c2ccccc2)c2nc3nc4c(c(N)c3c(-c3ccc(Cl)cc3)c12)CCC4: 0
- COc1cc2ncnc(Nc3ccc(OCc4cccc(F)c4)c(Cl)c3)c2cc1NC(=O)C1CCCC1: 1

stdin: # fetch the recorded call for COc1cc2nc3cc([N+](=O)[O-])ccc3c(NCCNCC(C)(C)O)c2cc1OC here
stdout: 1

stdin: # fetch the recorded call for CCOC(=O)c1sc(-c2ccc(OS(=O)(=O)c3ccccc3[N+](=O)[O-])c(C=O)c2)nc1C here
stdout: 0

stdin: # fetch the recorded call for CCCCCCCCCCCCCCNc1nc(CO)ncc1-c1ccc(C(F)(F)F)cc1 here
stdout: 0

stdin: # fetch the recorded call for CCOC(=O)c1nnn(Cc2cc(=O)oc3ccc(O)cc23)c1C here
stdout: 0

stdin: # fetch the recorded call for CN1CC(c2ccccc2)C(C(=O)c2ccc(Br)cc2)C12C(=O)Nc1ccccc12 (stereo not given) here
stdout: 0
